Endpoint: IC50. System: α-amylase (Aspergillus oryzae, UniProt P0C1B3). Items follow.
Measured parameter: IC50 (µM)

>  <Molecule>
CCCCNC(=O)Nc1ccccc1-c1nc2ccccc2[nH]1 [3f]

>  <Subject of test>
α-amylase (Aspergillus oryzae, UniProt P0C1B3)

>  <Measured parameter>
IC50

>  <Unit>
µM

>  <Endpoint value>
28.3

$$$$
>  <Molecule>
COc1ccc(NC(=O)Nc2ccccc2-c2nc3ccccc3[nH]2)cc1 [3c]

>  <Subject of test>
α-amylase (Aspergillus oryzae, UniProt P0C1B3)

>  <Measured parameter>
IC50

>  <Unit>
µM

>  <Endpoint value>
18.7

$$$$
>  <Molecule>
O=C(Nc1ccccc1-c1nc2ccccc2[nH]1)NC1CCCCC1 [3d]

>  <Subject of test>
α-amylase (Aspergillus oryzae, UniProt P0C1B3)

>  <Measured parameter>
IC50

>  <Unit>
µM

>  <Endpoint value>
25.7

$$$$
>  <Molecule>
O=C(Nc1ccccc1-c1nc2ccccc2[nH]1)Nc1cccc2ccccc12 [3b]

>  <Subject of test>
α-amylase (Aspergillus oryzae, UniProt P0C1B3)

>  <Measured parameter>
IC50

>  <Unit>
µM

>  <Endpoint value>
41.7

$$$$
>  <Molecule>
O=C(Nc1ccccc1)Nc1ccccc1-c1nc2ccccc2[nH]1 [3a]

>  <Subject of test>
α-amylase (Aspergillus oryzae, UniProt P0C1B3)

>  <Measured parameter>
IC50

>  <Unit>
µM

>  <Endpoint value>
40.7

$$$$

###

The entries below come with measured melting point values attached.

>  <Compound>
O=C(Nc1ccccc1-c1nc2ccccc2[nH]1)NC1CCCCC1 [3d]

>  <melting point>
330 to 332 °C

$$$$
>  <Compound>
COc1ccc(NC(=O)Nc2ccccc2-c2nc3ccccc3[nH]2)cc1 [3c]

>  <melting point>
197 to 199 °C

$$$$
>  <Compound>
O=C(Nc1ccccc1-c1nc2ccccc2[nH]1)Nc1cccc2ccccc12 [3b]

>  <melting point>
203 to 205 °C

$$$$

###

The entries below come with measured IC50 values attached.
target: α-glucosidase (Saccharomyces cerevisiae)
Sequence (P53341 whole entry): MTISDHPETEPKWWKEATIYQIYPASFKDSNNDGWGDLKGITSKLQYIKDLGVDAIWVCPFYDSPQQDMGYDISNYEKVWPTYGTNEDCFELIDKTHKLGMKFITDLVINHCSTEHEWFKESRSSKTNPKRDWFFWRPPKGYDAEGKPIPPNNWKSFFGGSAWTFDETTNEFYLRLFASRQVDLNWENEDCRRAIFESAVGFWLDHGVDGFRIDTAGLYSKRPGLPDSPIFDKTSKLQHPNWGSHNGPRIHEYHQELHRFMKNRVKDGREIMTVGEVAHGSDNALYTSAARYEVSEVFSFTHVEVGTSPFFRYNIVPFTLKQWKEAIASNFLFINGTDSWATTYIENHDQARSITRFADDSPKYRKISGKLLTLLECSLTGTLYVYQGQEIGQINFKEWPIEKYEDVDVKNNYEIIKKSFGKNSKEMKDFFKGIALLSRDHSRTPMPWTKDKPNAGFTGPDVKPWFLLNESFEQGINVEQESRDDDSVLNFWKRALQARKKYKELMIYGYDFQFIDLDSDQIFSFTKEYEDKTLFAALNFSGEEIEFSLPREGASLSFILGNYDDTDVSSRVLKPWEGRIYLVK

>  <Compound>
O=C(NCC1CCC(CNC(=O)Nc2ccccc2-c2nc3ccccc3[nH]2)CC1)Nc1ccccc1-c1nc2ccccc2[nH]1 (centres unmarked)

>  <IC50>
45 µM

$$$$
>  <Compound>
O=C(Nc1ccccc1-c1nc2ccccc2[nH]1)NC1CCCCC1

>  <IC50>
27.5 µM

$$$$
>  <Compound>
O=C(Nc1ccccc1)Nc1ccccc1-c1nc2ccccc2[nH]1

>  <IC50>
43 µM

$$$$
>  <Compound>
COc1ccc(NC(=O)Nc2ccccc2-c2nc3ccccc3[nH]2)cc1

>  <IC50>
17.5 µM

$$$$
>  <Compound>
CC(C)NC(=O)Nc1ccccc1-c1nc2ccccc2[nH]1

>  <IC50>
22 µM

$$$$
